Recorded values, source the NIST ThermoML archive (doi:10.1016/j.fluid.2016.02.009).

TEST_SETTINGS: 293.15 K; 10000 kPa; Liquid; Vibrating tube method
OBSERVABLE: mass density (kg/m3)
Respond with the bare value in kg/m3.

Suppose we examine the compound CCCCCOCCCCC ; what mass density value has been reported?
790.83

Endpoint output: mass density of CCCCOC . Value?
756.08

For COC(C)(C)C , what is its reported mass density?
751.7

Please look up its mass density: CCCCOCC
759.98

Item CCOC(C)(C)C has what recorded mass density?
751.89

Recorded mass density of CC(C)OC(C)C , please.
735.37

Requested read-out: mass density. Entry: CC(C)CCOCCC(C)C
783.04

Given the compound CCCOCCC , what is its reported mass density?
757.94

====

TEST_SETTINGS: 328.15 K; 50000 kPa; Liquid; Vibrating tube method
Recorded mass density values for a group of molecules are listed next.
Field format: number, assumed kg/m3, no unit text.

Example results:
STRUCTURE_STRING | OBSERVABLE | EXPERIMENTAL_VALUE
CCCCCOCCCCC | mass density | 793.7
CC(C)OC(C)C | mass density | 743.94
CC(C)CCOCCC(C)C | mass density | 787.49
CCCCOC | mass density | 760.91
CCOC(C)(C)C | mass density | 758.63
CCCOCCC | mass density | 763.06

Okay, next one:
Bench note: what mass density did CCCCOCC show?
764.73

====

TEST_SETTINGS: 333.15 K; 20000 kPa; Liquid; Vibrating tube method
OBSERVABLE: mass density (kg/m3)
Give just the number in kg/m3; leave the unit off.

# mass density lookup, item CCOC(C)(C)C [2-ethoxy-2-methylpropane]
725.83

So what's the measured mass density for this one? CCCOCCC [dipropyl ether]
732.34

====

mass density overview
TEST_SETTINGS: 328.15 K; 55000 kPa; Liquid; Vibrating tube method
Respond numerically; units are kg/m3 and should not be typed.

Study these solved cases before continuing.
STRUCTURE_STRING | mass density [kg/m3]
CC(C)CCOCCC(C)C | 790.7
CC(C)OC(C)C | 748.05
CCCCOCC | 768.42
CCCOCCC | 766.79
CCCCOC | 764.72
CCOC(C)(C)C | 762.55

Please give the measured mass density for this compound: CCCCCOCCCCC
796.82

====

Catalogue of molecules with associated mass density
TEST_SETTINGS: 293.15 K; 5000 kPa; Liquid; Vibrating tube method
Just the number in kg/m3, nothing appended.

Below, each entry is followed by its recorded mass density result.
STRUCTURE_STRING | mass density (kg/m3)
CCCCOCC | 755.18
CCOC(C)(C)C | 746.6
COC(C)(C)C | 746.34
CCCCOC | 751.18
CCCCCOCCCCC | 787.04
CC(C)OC(C)C | 729.62
CC(C)CCOCCC(C)C | 779.03

Now, please, on to the next molecule.
// query mass density value for entry CCCOCCC
752.98

====

TEST_SETTINGS: 283.15 K; 40000 kPa; Liquid; Vibrating tube method
± gives the expanded uncertainty stated by the source.
OBSERVABLE: mass density
The answer consists of two parts: a number and, after it, its unit.

Take a look at these entries with their results.
STRUCTURE_STRING | mass density
CC(C)CCOCCC(C)C | 810.61 ± 0.53 kg/m3
CCCCOC | 788.8 ± 0.56 kg/m3
CCOC(C)(C)C | 785.98 ± 0.57 kg/m3
CCCCCOCCCCC | 817.31 ± 0.52 kg/m3
CCCOCCC | 790.38 ± 0.56 kg/m3

For CC(C)OC(C)C , what is its reported mass density?
770.91 ± 0.59 kg/m3

Item CCCCOCC has what recorded mass density?
791.65 ± 0.56 kg/m3

For COC(C)(C)C , what is its reported mass density?
785.94 ± 0.57 kg/m3
